- Tested on: KG-1
- experiment notes: Growth inhibition of human KG-1 cells at 10 uM incubated for 24 hrs by MTT assay relative to control
- Type: functional
- condition label: KG-1, 24 h
Given measured inhibition in vitro at 10 µM, output true (1) if it is greater than or equal to 20% and false (0) if not.

Illustrative cases are given below, each with its answer.
Cn1c(SCc2ccc(C(=O)Nc3ccccc3N)cc2)nnc1-c1ccncc1: true (1)
Nc1ccccc1NC(=O)c1ccc(CSc2nnc(-c3ccncc3)n2-c2ccccc2)cc1: true (1)
O=C(O)CCCCCSc1nnc(-c2ccncc2)n1-c1ccccc1: true (1)

// inclusive: inhibition in vitro at 10 µM at least 20%? input: O=C(CCCCCSc1nnc(-c2ccncc2)n1-c1ccccc1)NO
false (0)

// inclusive: inhibition in vitro at 10 µM at least 20%? input: C=CCn1c(SCc2ccc(C(=O)Nc3ccccc3N)cc2)nnc1-c1ccncc1
true (1)

* * *

- study target: Histone deacetylase 8 (Homo sapiens)
- Sequence (Q9BY41 whole entry): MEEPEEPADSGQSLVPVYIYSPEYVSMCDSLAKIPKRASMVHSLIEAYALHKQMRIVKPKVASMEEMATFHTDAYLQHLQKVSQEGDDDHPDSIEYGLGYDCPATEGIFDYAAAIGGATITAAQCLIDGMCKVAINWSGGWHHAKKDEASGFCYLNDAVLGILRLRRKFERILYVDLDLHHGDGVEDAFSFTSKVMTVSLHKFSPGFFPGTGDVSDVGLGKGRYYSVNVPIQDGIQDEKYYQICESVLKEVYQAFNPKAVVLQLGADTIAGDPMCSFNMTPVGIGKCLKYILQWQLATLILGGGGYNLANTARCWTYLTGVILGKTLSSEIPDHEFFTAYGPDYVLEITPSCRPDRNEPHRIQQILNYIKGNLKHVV
- experiment notes: Inhibition of human full-length recombinant C-terminal His-tagged HDAC8 expressed in baculovirus infected Sf9 insect cells preincubated for 5 mins followed by HDAC substrate addition and further incubated for 45 mins by fluorescence microplate reader assay
# pIC50 values compiled below
Scale note: pIC50 = -log10(concentration in M).

C=CCn1c(SCCCCCC(=O)Nc2ccccc2N)nnc1-c1ccncc1: 5.23
Cn1c(SCCCCCC(=O)NO)nnc1-c1ccncc1: 5.15
Cn1c(SCc2ccc(C(=O)NO)cc2)nnc1-c1ccncc1: 4.53

pIC50 for C=CCn1c(SCc2ccc(C(=O)NO)cc2)nnc1-c1ccncc1 ?
4.55

* * *

- Test system: A498
- experiment notes: Antiproliferative activity against human A498 cells assessed as cell growth inhibition incubated for 24 hrs by MTT assay
- Format: functional, cell-based
- condition label: A498, 24 h
quantity kind: IC50

O=C(CCCCCSc1nnc(-c2ccncc2)n1-c1ccccc1)NO: 174 µM

Now for another entry.
IC50 for C=CCn1c(SCc2ccc(C(=O)Nc3ccccc3N)cc2)nnc1-c1ccncc1 ?
1.42 µM

* * *

- System: CAKI-1
- experiment notes: Growth inhibition of human CAKI-1 cells at 10 uM incubated for 24 hrs by MTT assay relative to control
- Assay type: functional
- condition label: read-out: GI
// map inhibition of growth at 10 µM onto a label; ranges 0 = under 9%, 1 = from 9% up to 60%, 2 = 60% and over

O=C(O)CCCCCSc1nnc(-c2ccncc2)n1-c1ccccc1: 2
C=CCn1c(SCc2ccc(C(=O)Nc3ccccc3N)cc2)nnc1-c1ccncc1: 2

The entry to classify is C=CCn1c(SCCCCCC(=O)O)nnc1-c1ccncc1 ; which class holds it?
0

The entry to classify is CCn1c(SCc2ccc(C(=O)Nc3ccccc3N)cc2)nnc1-c1ccncc1 ; which class holds it?
1

The entry to classify is Cn1c(SCc2ccc(C(=O)Nc3ccccc3N)cc2)nnc1-c1ccncc1 ; which class holds it?
2

* * *

# pIC50 values compiled below
- study target: Histone deacetylase 8 (Homo sapiens, UniProt Q9BY41)
- Sequence (Q9BY41 whole entry): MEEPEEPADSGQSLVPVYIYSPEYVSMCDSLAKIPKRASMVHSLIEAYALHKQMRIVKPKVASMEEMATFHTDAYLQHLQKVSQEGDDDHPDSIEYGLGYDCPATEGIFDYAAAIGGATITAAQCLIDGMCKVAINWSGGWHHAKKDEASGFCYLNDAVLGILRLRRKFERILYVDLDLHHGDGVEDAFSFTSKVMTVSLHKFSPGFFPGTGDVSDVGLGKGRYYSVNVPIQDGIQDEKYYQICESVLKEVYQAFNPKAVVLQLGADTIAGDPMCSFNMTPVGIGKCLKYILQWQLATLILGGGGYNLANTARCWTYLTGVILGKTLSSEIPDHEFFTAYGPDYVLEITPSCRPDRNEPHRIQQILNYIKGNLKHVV
- experiment notes: Inhibition of human full-length recombinant C-terminal His-tagged HDAC8 expressed in baculovirus infected Sf9 insect cells preincubated for 5 mins followed by HDAC substrate addition and further incubated for 45 mins by fluorescence microplate reader assay
Scale note: pIC50 = -log10(concentration in M).

Look over these answered cases.
C=CCn1c(SCc2ccc(C(=O)Nc3ccccc3N)cc2)nnc1-c1ccncc1: 4.65
Cn1c(SCCCCCC(=O)O)nnc1-c1ccncc1: 4.92

pIC50 for O=C(NO)c1ccc(CSc2nnc(-c3ccncc3)n2-c2ccccc2)cc1 ?
4.89

* * *

- study target: Histone deacetylase 3 (Homo sapiens, UniProt O15379)
- Sequence (O15379 whole entry): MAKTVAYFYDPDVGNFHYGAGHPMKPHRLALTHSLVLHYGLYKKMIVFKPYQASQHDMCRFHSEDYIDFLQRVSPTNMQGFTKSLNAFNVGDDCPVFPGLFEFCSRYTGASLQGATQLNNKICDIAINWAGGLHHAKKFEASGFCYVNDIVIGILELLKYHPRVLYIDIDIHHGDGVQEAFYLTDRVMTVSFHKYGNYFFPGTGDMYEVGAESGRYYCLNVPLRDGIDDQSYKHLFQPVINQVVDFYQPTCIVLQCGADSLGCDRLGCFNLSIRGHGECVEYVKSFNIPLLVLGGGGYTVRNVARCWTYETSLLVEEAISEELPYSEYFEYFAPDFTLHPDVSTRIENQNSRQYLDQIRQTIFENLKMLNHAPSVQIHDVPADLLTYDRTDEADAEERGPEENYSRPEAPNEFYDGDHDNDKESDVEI
- experiment notes: Inhibition of human full-length recombinant HDAC3 preincubated for 5 mins followed by HDAC substrate addition and further incubated for 45 mins by fluorescence microplate reader assay
quantity kind: log10 of IC50 (log10 of the value in µM)
Friendly reminder: values = log10 of IC50, unit µM.

Look over these answered cases.
CCn1c(SCc2ccc(C(=O)NO)cc2)nnc1-c1ccncc1: 2.24
Nc1ccccc1NC(=O)c1ccc(CSc2nnc(-c3ccncc3)n2-c2ccccc2)cc1: 2.05
C=CCn1c(SCCCCCC(=O)O)nnc1-c1ccncc1: 2.39

log10 of IC50 for C=CCn1c(SCc2ccc(C(=O)NO)cc2)nnc1-c1ccncc1 ?
1.32

log10 of IC50 for C=CCn1c(SCc2ccc(C(=O)Nc3ccccc3N)cc2)nnc1-c1ccncc1 ?
1.62

log10 of IC50 for C=CCn1c(SCCCCCC(=O)Nc2ccccc2N)nnc1-c1ccncc1 ?
1.04

* * *

# IC50 values compiled below
- study target: Histone deacetylase 2 (Homo sapiens, UniProt Q92769)
- Sequence (Q92769 whole entry): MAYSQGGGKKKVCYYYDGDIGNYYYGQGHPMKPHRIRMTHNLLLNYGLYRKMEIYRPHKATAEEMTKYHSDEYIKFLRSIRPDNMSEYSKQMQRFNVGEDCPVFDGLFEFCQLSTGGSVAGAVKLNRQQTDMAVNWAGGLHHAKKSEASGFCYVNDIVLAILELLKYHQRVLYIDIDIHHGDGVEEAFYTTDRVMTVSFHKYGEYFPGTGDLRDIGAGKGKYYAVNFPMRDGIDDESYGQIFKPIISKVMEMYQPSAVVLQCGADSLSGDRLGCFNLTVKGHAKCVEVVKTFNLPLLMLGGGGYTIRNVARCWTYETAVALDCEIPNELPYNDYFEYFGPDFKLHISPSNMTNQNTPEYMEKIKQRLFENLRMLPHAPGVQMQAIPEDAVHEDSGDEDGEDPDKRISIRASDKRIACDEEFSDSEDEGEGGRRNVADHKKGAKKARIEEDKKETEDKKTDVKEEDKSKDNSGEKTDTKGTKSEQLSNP
- experiment notes: Inhibition of human full-length recombinant HDAC2 preincubated for 5 mins followed by HDAC substrate addition and further incubated for 45 mins by fluorescence microplate reader assay
Your answer is read as µM, so omit the unit and give the number.

Cn1c(SCc2ccc(C(=O)Nc3ccccc3N)cc2)nnc1-c1ccncc1: 13
Nc1ccccc1NC(=O)c1ccc(CSc2nnc(-c3ccncc3)n2-c2ccccc2)cc1: 8.39
C=CCn1c(SCc2ccc(C(=O)NO)cc2)nnc1-c1ccncc1: 11.2
C=CCn1c(SCCCCCC(=O)Nc2ccccc2N)nnc1-c1ccncc1: 1.4

Now for another entry.
IC50 for O=C(O)CCCCCSc1nnc(-c2ccncc2)n1-c1ccccc1 ?
0.64

* * *

- study target: Histone deacetylase 1 (Homo sapiens, UniProt Q13547)
- Sequence (Q13547 whole entry): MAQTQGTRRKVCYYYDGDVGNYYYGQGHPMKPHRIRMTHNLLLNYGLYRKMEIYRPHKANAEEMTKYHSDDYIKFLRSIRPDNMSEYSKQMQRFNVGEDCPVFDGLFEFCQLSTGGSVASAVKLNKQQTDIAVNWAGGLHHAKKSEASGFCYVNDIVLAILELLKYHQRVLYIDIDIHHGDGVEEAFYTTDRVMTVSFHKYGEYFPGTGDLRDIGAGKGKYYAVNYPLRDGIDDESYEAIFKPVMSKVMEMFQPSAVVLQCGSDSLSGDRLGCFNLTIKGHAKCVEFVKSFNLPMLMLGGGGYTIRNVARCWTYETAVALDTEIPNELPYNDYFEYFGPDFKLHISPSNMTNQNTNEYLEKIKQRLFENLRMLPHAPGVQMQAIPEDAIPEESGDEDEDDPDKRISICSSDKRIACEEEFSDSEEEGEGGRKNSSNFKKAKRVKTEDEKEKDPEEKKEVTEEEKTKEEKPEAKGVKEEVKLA
- experiment notes: Inhibition of human full-length recombinant HDAC1 preincubated for 5 mins followed by HDAC substrate addition and further incubated for 45 mins by fluorescence microplate reader assay
So basically, if IC50 comes in under 20 µM it's true (1), and if it's 20 µM or more it's false (0).

Illustrative cases are given below, each with its answer.
Cn1c(SCc2ccc(C(=O)Nc3ccccc3N)cc2)nnc1-c1ccncc1: true (1)
Cn1c(SCCCCCC(=O)Nc2ccccc2N)nnc1-c1ccncc1: false (0)

Answer whether the compound C=CCn1c(SCCCCCC(=O)O)nnc1-c1ccncc1 has IC50 strictly less than 20 µM
false (0)

Answer whether the compound C=CCn1c(SCCCCCC(=O)Nc2ccccc2N)nnc1-c1ccncc1 has IC50 strictly less than 20 µM
false (0)

Answer whether the compound O=C(CCCCCSc1nnc(-c2ccncc2)n1-c1ccccc1)NO has IC50 strictly less than 20 µM
false (0)

Answer whether the compound CCn1c(SCc2ccc(C(=O)NO)cc2)nnc1-c1ccncc1 has IC50 strictly less than 20 µM
false (0)

Answer whether the compound O=C(NO)c1ccc(CSc2nnc(-c3ccncc3)n2-c2ccccc2)cc1 has IC50 strictly less than 20 µM
true (1)

Answer whether the compound C=CCn1c(SCc2ccc(C(=O)Nc3ccccc3N)cc2)nnc1-c1ccncc1 has IC50 strictly less than 20 µM
true (1)

Answer whether the compound CCn1c(SCc2ccc(C(=O)Nc3ccccc3N)cc2)nnc1-c1ccncc1 has IC50 strictly less than 20 µM
false (0)

Answer whether the compound CCn1c(SCCCCCC(=O)NO)nnc1-c1ccncc1 has IC50 strictly less than 20 µM
false (0)

Answer whether the compound O=C(O)CCCCCSc1nnc(-c2ccncc2)n1-c1ccccc1 has IC50 strictly less than 20 µM
true (1)

* * *

- study target: Protein deacetylase HDAC6 (Homo sapiens, UniProt Q9UBN7)
- Sequence (Q9UBN7 whole entry): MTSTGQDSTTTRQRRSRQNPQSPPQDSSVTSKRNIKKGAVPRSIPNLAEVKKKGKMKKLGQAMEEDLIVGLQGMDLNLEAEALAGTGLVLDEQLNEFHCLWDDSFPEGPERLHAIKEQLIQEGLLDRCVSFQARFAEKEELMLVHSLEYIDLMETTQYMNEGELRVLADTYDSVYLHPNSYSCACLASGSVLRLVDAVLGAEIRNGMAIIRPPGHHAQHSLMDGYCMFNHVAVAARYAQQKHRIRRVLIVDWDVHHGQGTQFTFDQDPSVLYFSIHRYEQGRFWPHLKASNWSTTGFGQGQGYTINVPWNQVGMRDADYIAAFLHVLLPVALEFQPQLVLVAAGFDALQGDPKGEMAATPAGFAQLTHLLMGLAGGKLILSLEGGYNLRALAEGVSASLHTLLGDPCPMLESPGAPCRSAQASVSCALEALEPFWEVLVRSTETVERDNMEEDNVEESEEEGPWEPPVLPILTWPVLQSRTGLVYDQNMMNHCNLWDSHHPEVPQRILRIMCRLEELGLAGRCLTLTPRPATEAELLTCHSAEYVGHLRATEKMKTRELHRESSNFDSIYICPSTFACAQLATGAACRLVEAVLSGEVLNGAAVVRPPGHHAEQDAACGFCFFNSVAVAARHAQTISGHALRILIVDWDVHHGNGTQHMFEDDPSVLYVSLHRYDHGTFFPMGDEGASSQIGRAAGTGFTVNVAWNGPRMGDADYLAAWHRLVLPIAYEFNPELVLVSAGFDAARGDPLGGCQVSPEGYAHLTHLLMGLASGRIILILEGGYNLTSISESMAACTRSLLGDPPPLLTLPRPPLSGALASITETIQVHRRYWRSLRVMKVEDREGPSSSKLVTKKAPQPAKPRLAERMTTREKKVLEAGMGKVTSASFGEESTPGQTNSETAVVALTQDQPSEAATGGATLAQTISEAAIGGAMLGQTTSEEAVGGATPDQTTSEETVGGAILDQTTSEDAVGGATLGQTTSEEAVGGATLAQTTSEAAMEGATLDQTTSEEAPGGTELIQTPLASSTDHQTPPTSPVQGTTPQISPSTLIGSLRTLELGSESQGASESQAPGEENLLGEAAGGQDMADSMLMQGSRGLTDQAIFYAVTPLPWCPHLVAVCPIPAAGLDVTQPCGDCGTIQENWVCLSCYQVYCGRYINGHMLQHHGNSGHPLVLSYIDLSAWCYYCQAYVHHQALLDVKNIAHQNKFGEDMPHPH
- experiment notes: Inhibition of human full-length recombinant HDAC6 preincubated for 5 mins followed by HDAC substrate addition and further incubated for 45 mins by fluorescence microplate reader assay
# pIC50 values compiled below
Scale note: pIC50 = -log10(concentration in M).

Look over these answered cases.
Cn1c(SCCCCCC(=O)O)nnc1-c1ccncc1: 4.11
CCCC(CCC)C(=O)O: 3.67

Lab request: please report pIC50 under test system Protein deacetylase HDAC6 (Homo sapiens, UniProt Q9UBN7) for C=CCn1c(SCCCCCC(=O)Nc2ccccc2N)nnc1-c1ccncc1
5.01

Lab request: please report pIC50 under test system Protein deacetylase HDAC6 (Homo sapiens, UniProt Q9UBN7) for O=C(CCCCCSc1nnc(-c2ccncc2)n1-c1ccccc1)NO
3.61

Lab request: please report pIC50 under test system Protein deacetylase HDAC6 (Homo sapiens, UniProt Q9UBN7) for CCn1c(SCCCCCC(=O)NO)nnc1-c1ccncc1
3.57

Lab request: please report pIC50 under test system Protein deacetylase HDAC6 (Homo sapiens, UniProt Q9UBN7) for Cn1c(SCCCCCC(=O)Nc2ccccc2N)nnc1-c1ccncc1
4.85

Lab request: please report pIC50 under test system Protein deacetylase HDAC6 (Homo sapiens, UniProt Q9UBN7) for O=C(O)CCCCCSc1nnc(-c2ccncc2)n1-c1ccccc1
4.96

Lab request: please report pIC50 under test system Protein deacetylase HDAC6 (Homo sapiens, UniProt Q9UBN7) for C=CCn1c(SCc2ccc(C(=O)NO)cc2)nnc1-c1ccncc1
5.01

Lab request: please report pIC50 under test system Protein deacetylase HDAC6 (Homo sapiens, UniProt Q9UBN7) for Nc1ccccc1NC(=O)c1ccc(CSc2nnc(-c3ccncc3)n2-c2ccccc2)cc1
5.02

Lab request: please report pIC50 under test system Protein deacetylase HDAC6 (Homo sapiens, UniProt Q9UBN7) for C=CCn1c(SCCCCCC(=O)NO)nnc1-c1ccncc1
3.54

Lab request: please report pIC50 under test system Protein deacetylase HDAC6 (Homo sapiens, UniProt Q9UBN7) for Nc1ccccc1NC(=O)CCCCCSc1nnc(-c2ccncc2)n1-c1ccccc1
3.80

Lab request: please report pIC50 under test system Protein deacetylase HDAC6 (Homo sapiens, UniProt Q9UBN7) for C=CCn1c(SCc2ccc(C(=O)Nc3ccccc3N)cc2)nnc1-c1ccncc1
5.00

Lab request: please report pIC50 under test system Protein deacetylase HDAC6 (Homo sapiens, UniProt Q9UBN7) for Cn1c(SCc2ccc(C(=O)Nc3ccccc3N)cc2)nnc1-c1ccncc1
4.96

Lab request: please report pIC50 under test system Protein deacetylase HDAC6 (Homo sapiens, UniProt Q9UBN7) for Cn1c(SCc2ccc(C(=O)NO)cc2)nnc1-c1ccncc1
4.84

Lab request: please report pIC50 under test system Protein deacetylase HDAC6 (Homo sapiens, UniProt Q9UBN7) for O=C(NO)c1ccc(CSc2nnc(-c3ccncc3)n2-c2ccccc2)cc1
5.16

Lab request: please report pIC50 under test system Protein deacetylase HDAC6 (Homo sapiens, UniProt Q9UBN7) for Cn1c(SCCCCCC(=O)NO)nnc1-c1ccncc1
4.86

Cited source for all entries: ChEMBL document CHEMBL4823270
